Just for reference, patent US8394809B2 is where these values come from.

# system name: mu opioid receptor (Rattus norvegicus)
# Construct: the forebrains were homogenized in Tris buffer in a Teflon®-glass homogenizer; from tissue; host or cells: forebrain of male Wistar rats, particulate membrane preparation
# test method notes: Rat brain mu opioid receptor binding assay
# condition set: rat forebrain membranes, ~0.8 nM [3H]DAMGO; read-out: μ-binding Ki
# reported pKi; entries follow
Expect pKi as a plain number equal to -log10 of the molar concentration.

**Q:** Form field - read-out: pKi; system: mu opioid receptor (Rattus norvegicus); submitted item: `COc1ccc(Oc2nc(C#Cc3ccccc3)ncc2NC[C@@H]2CCCN2)cc1`
**A:** 5.35

New cases:
**Q:** Form field - read-out: pKi; system: mu opioid receptor (Rattus norvegicus); submitted item: `COc1ccc(Oc2ncc(NC[C@@H]3CCCN3C)c(Oc3ccc(OC)cc3)n2)cc1`
**A:** 5.03

----------
# system name: delta opioid receptor (Rattus norvegicus, UniProt P33533)
# Construct: the forebrains were homogenized in Tris buffer in a Teflon®-glass homogenizer; from tissue; host or cells: forebrain of male Wistar rats, particulate membrane preparation
# Sequence (P33533 whole entry): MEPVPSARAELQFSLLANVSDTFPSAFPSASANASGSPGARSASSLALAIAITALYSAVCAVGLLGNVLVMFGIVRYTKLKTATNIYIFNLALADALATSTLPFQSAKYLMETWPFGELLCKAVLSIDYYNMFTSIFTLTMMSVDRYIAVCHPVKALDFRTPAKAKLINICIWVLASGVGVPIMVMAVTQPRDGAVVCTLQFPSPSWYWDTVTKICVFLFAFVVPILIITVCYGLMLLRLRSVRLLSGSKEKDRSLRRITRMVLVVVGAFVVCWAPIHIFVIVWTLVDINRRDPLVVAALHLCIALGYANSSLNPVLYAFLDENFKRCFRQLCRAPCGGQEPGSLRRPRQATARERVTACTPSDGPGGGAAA
# test method notes: Rat brain delta opioid receptor binding assay
# condition set: rat forebrain membranes, 0.25 nM [3H]naltrindole; read-out: δ-binding (Naltrindole ligand) Ki
Classes by Ki: lowest (below 100 nM), middle (100 nM to below 1000 nM), highest (1000 nM or more)

Please review the entries below; each comes with its answer.
**Q:** Given COc1ccc(Oc2ncc(NC3CCC(N)CC3)c(Oc3ccc(OC)cc3)n2)cc1 (centres unmarked) , name the class its Ki places it in.
**A:** middle

**Q:** And what about the compound COc1ccc(Oc2ncc(NC3CCCC(N)C3)c(Oc3ccc(OC)cc3)n2)cc1 (centres unmarked) ?
**A:** lowest

**Q:** And what about the compound `COc1ccc(Oc2ncc(CNC[C@@H]3CCCN3C)c(Oc3ccc(OC)cc3)n2)cc1` ?
**A:** lowest

**Q:** And what about the compound COc1ccc(Oc2ncc(NC3CC4CCC(C3)N4)c(Oc3ccc(OC)cc3)n2)cc1 (centres unmarked) ?
**A:** middle

**Q:** And what about the compound `COc1ccc(Oc2ncc(NCC3CCNCC3)c(Oc3ccc(OC)cc3)n2)cc1` ?
**A:** middle

New cases:
**Q:** Given `COc1ccc(Oc2ncc(NCC3CNC3)c(Oc3ccc(OC)cc3)n2)cc1` , name the class its Ki places it in.
**A:** middle

**Q:** And what about the compound COc1ccc(Oc2ncc(NCC3CCCN3)c(Oc3ccc(OC)cc3)n2)cc1 (centres unmarked) [Cpd 7] ?
**A:** lowest

**Q:** And what about the compound `COc1ccc(Oc2nc(C#Cc3ccccc3)ncc2NC[C@@H]2CCCN2)cc1` ?
**A:** lowest

----------
# system name: delta opioid receptor (Mus musculus)
# Construct: NG108-15 cell membranes were purchased from Applied Cell Sciences (Rockville, Md.); host or cells: NG108-15 cell membranes (purchased)
# test method notes: [35S]GTPγS binding assay in NG108-15 cell membranes (delta opioid functional assay)
# Format: biochemical
# condition set: read-out: GTPγS δ-opioid receptor EC50
reported endpoint: EC50 (nM)
Numbers only; they are read as nM.

The examples below pair each entry with its known result.
**Q:** Name the reported EC50 value associated with the compound `COc1ccc(Oc2nc(Sc3cccc(F)c3)ncc2NC[C@@H]2CCCN2)cc1`
**A:** 193

**Q:** And what about the compound `COc1ccc(Oc2nc(Oc3cccnc3)ncc2NC[C@@H]2CCCN2)cc1` ?
**A:** 734

**Q:** And what about the compound COc1ccc(Oc2ncc(NCC3CCCN3)c(Oc3ccc(OC)cc3)n2)cc1 (stereo not drawn) ?
**A:** 221

**Q:** And what about the compound `COc1ccc(Oc2nc(Oc3cccc(C#N)c3)ncc2NC[C@@H]2CCCN2)cc1` ?
**A:** 53

**Q:** And what about the compound COc1ccc(Oc2ncc(NC3CCCNC3)c(Oc3ccc(OC)cc3)n2)cc1 (stereo not drawn) ?
**A:** 828

Proceeding to the next compound to report its EC50.
**Q:** Name the reported EC50 value associated with the compound `CCN(CC)C(=O)c1ccc(Oc2ncc(NC[C@@H]3CCCN3)c(Oc3ccc(OC)cc3)n2)cc1`
**A:** 2620

----------
# system name: delta opioid receptor (Mus musculus, UniProt P32300)
# Construct: NG108-15 cell membranes were purchased from Applied Cell Sciences (Rockville, Md.); host or cells: NG108-15 cell membranes (purchased)
# Sequence (P32300 whole entry): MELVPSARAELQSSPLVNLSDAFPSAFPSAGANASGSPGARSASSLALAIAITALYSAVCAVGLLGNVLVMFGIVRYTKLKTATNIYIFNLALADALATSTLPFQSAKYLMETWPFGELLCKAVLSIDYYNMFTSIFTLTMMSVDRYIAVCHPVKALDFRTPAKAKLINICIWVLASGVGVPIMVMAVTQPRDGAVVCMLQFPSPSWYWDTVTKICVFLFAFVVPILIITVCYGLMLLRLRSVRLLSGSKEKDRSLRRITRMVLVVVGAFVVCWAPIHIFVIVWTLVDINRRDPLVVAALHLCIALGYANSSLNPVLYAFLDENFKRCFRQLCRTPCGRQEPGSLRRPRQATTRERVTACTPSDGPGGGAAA
# test method notes: [35S]GTPγS binding assay in NG108-15 cell membranes (delta opioid functional assay)
# Type: biochemical
# condition set: GTPγS δ-opioid receptor EC50
reported endpoint: EC50 (µM)
Numbers only; they are read as µM.

The examples below pair each entry with its known result.
**Q:** Name the reported EC50 value associated with the compound `COc1ccc(Oc2nc(C#Cc3ccccc3)ncc2NC[C@@H]2CCCN2)cc1`
**A:** 1.03

**Q:** And what about the compound `COc1ccc(Oc2nc(Oc3cccc(Cl)c3)ncc2NC[C@@H]2CCCN2)cc1` ?
**A:** 0.043

New cases:
**Q:** Name the reported EC50 value associated with the compound `COc1ccc(Oc2nc(Oc3cccc(OC)c3)ncc2NC[C@@H]2CCCN2)cc1`
**A:** 0.051

----------
# system name: mu opioid receptor (Rattus norvegicus, UniProt P33535)
# Construct: the forebrains were homogenized in Tris buffer in a Teflon®-glass homogenizer; from tissue; host or cells: forebrain of male Wistar rats, particulate membrane preparation
# Sequence (P33535 whole entry): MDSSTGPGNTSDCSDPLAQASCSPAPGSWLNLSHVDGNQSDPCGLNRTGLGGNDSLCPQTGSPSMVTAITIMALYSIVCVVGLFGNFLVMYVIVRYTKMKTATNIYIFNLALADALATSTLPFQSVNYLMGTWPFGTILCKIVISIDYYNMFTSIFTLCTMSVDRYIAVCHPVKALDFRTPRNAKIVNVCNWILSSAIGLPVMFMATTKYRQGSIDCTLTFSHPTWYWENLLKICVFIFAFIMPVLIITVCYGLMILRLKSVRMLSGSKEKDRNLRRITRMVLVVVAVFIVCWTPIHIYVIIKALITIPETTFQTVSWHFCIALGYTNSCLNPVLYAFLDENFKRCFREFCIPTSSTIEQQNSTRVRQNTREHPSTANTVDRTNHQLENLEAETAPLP
# test method notes: Rat brain mu opioid receptor binding assay
# condition set: rat forebrain membranes, ~0.8 nM [3H]DAMGO; read-out: μ-binding Ki
reported endpoint: Ki (µM)
Numbers only; they are read as µM.

**Q:** Name the reported Ki value associated with the molecule `COc1ccc(C=Cc2ncc(NC[C@@H]3CCCN3)c(Oc3ccc(OC)cc3)n2)cc1`
**A:** 2.05

New cases:
**Q:** Name the reported Ki value associated with the molecule COc1ccc(Oc2ncc(NCC3CCCNC3)c(Oc3ccc(OC)cc3)n2)cc1 (racemic)
**A:** 3.23

**Q:** And what about the molecule `COc1ccc(Oc2ncc(NCC3CCNCC3)c(Oc3ccc(OC)cc3)n2)cc1` ?
**A:** 12.3

----------
# reported inhibition at 10 µM; entries follow
# system name: delta opioid receptor (Mus musculus)
# Construct: NG108-15 cell membranes were purchased from Applied Cell Sciences (Rockville, Md.); host or cells: NG108-15 cell membranes (purchased)
# test method notes: [35S]GTPγS binding assay in NG108-15 cell membranes (delta opioid functional assay)
# Assay type: biochemical
# condition set: read-out: GTPγS δ-opioid receptor % Inh @10 μM, 10 μM
Numbers only; they are read as %.

**Q:** Name the reported inhibition at 10 µM value associated with the compound CCN(CC)C(=O)c1ccc(Oc2ncc(NC[C@@H]3CCCN3)c(Oc3ccc(OC)cc3)n2)cc1 [Cpd 5]
**A:** 26.4

New cases:
**Q:** Name the reported inhibition at 10 µM value associated with the compound COc1ccc(Oc2nc(C#Cc3ccccc3)ncc2NC[C@@H]2CCCN2)cc1 [Cpd 4]
**A:** 8.94

**Q:** And what about the compound COc1ccc(Oc2ncc(NC3CCCC(N)C3)c(Oc3ccc(OC)cc3)n2)cc1 (stereo not shown) [Cpd 3] ?
**A:** 12.8

**Q:** And what about the compound COc1ccc(Oc2ncc(NC3CCCNC3)c(Oc3ccc(OC)cc3)n2)cc1 (stereo not shown) [Cpd 2] ?
**A:** 8.16

----------
# system name: delta opioid receptor (Mus musculus)
# Construct: NG108-15 cell membranes were purchased from Applied Cell Sciences (Rockville, Md.); host or cells: NG108-15 cell membranes (purchased)
# test method notes: [35S]GTPγS binding assay in NG108-15 cell membranes (delta opioid functional assay)
# Assay type: biochemical
# condition set: 200 nM compound; relative to calculated max of SNC80 dose response
# reported GTPγS δ-Rel Efficacy @200 nM; entries follow
Write no unit; give the number alone.

The examples below pair each entry with its known result.
**Q:** Name the reported GTPγS δ-Rel Efficacy @200 nM value associated with the molecule COc1ccc(Oc2nc(Nc3cccnc3)ncc2NC[C@@H]2CCCN2)cc1 [Cpd 48]
**A:** 0.267

**Q:** And what about the molecule COc1ccc(Oc2nc(Oc3cc(F)cc(F)c3)ncc2NC[C@@H]2CCCN2)cc1 [Cpd 54] ?
**A:** 0.066

New cases:
**Q:** Name the reported GTPγS δ-Rel Efficacy @200 nM value associated with the molecule COc1ccc(Oc2nc(Nc3cccc(F)c3)ncc2NC[C@@H]2CCCN2)cc1 [Cpd 49]
**A:** 0.216

**Q:** And what about the molecule COc1ccc(Oc2nc(Nc3nccs3)ncc2NC[C@@H]2CCCN2)cc1 [Cpd 50] ?
**A:** 0.143

**Q:** And what about the molecule COc1ccc(Oc2nc(Oc3cccc(Cl)c3)ncc2NC[C@@H]2CCCN2)cc1 [Cpd 51] ?
**A:** 0.859
